SYSTEM_NAME: USP8 (UniProt P40818)
Sequence (whole entry): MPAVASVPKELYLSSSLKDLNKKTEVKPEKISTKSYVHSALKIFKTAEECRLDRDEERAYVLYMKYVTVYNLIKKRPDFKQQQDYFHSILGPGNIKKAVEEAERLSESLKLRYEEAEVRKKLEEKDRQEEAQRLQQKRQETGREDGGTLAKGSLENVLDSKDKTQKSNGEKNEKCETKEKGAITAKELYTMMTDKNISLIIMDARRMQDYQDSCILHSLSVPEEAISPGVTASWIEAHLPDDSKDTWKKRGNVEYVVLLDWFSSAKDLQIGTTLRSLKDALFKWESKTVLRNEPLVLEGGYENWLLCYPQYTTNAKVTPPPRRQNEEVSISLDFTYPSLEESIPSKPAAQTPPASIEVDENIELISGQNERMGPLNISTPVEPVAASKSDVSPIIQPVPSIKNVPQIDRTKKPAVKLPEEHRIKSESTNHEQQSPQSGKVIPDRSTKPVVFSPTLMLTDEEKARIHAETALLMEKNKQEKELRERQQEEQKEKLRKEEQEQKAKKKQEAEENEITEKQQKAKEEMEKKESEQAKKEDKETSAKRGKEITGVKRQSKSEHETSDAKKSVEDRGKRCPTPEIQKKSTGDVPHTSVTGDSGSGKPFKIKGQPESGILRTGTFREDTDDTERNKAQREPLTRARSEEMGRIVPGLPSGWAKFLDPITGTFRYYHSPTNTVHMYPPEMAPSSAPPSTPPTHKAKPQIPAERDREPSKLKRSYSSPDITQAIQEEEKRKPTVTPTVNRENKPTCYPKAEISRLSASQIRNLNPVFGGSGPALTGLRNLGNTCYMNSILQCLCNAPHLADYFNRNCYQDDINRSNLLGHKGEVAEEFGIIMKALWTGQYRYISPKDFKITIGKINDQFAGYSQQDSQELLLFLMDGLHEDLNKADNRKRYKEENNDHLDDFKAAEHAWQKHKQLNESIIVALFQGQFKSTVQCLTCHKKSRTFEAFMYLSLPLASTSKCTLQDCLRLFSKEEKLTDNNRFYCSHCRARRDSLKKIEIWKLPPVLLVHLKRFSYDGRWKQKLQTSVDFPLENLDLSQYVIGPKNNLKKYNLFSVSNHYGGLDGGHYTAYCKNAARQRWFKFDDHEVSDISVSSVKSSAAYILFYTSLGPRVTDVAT
PROTOCOL_DETAILS: log2 ratio of Biotin-Ahx-Ub-VS probe labelling (fragment/DMSO); higher = less target engagement (more negative = stronger competition), active = hit call of the paper (q ≤ 0.05, log2 ratio ≤ -1)
EXPERIMENTAL_PARAMETERS: compound concentration: 200 uM; treatment time: 3 h
TEST_READOUT: log2 ratio of Biotin-Ahx-Ub-VS probe labelling

>>> experimental_result("O=C(CCl)NCCC1COCCO1 (centres undefined)")
-0.26
>>> experimental_result("Cc1ccc(CN(C)C(=O)CCl)o1")
-0.199
>>> experimental_result("O=C(CCl)N1CCC(C(=O)N2CCCC2)CC1")
-0.0342
>>> experimental_result("Cc1ccccc1OCC(=O)N1CCN(C(=O)CCl)CC1")
0.0472
>>> experimental_result("Cc1ncsc1CCNC(=O)CCl")
0.298
>>> experimental_result("Cl.Cn1cnc2cc(CNC(=O)CCl)ccc21")
-0.103
>>> experimental_result("CC1(NC(=O)CCl)CCS(=O)(=O)C1 (centres undefined)")
-0.788
>>> experimental_result("CN(CCC(O)c1ccc(Br)cc1)C(=O)CCl (centres undefined)")
-0.072
>>> experimental_result("C#Cc1cccc(NC(=O)CCl)c1")
-0.179
>>> experimental_result("CC1CCc2onc(CNC(=O)CCl)c2C1 (centres undefined)")
-0.212
>>> experimental_result("O=C(CCl)NCc1ccc(N2CCOCC2)nc1")
-0.289
>>> experimental_result("O=C(CCl)N1CCC(C(O)c2ccc(F)cc2)CC1 (centres undefined)")
0.0961
>>> experimental_result("Cc1ccccc1C1(CNC(=O)CCl)CCOCC1")
-0.0708
>>> experimental_result("CC(NC(=O)CCl)c1csc(-c2ccccc2)n1.Cl (centres undefined)")
-0.318
>>> experimental_result("O=C(CCl)N1CC2(CCOCC2)C1")
0.147
>>> experimental_result("CC(NC(=O)CCl)c1noc(Cc2ccccc2)n1 (centres undefined)")
-0.579
>>> experimental_result("Cl.O=C(CCl)N1CCn2ncc(O)c2C1")
-0.577
>>> experimental_result("O=C(CCl)Nc1nc(-c2cccs2)cs1")
0.0395
>>> experimental_result("O=C(CCl)NCc1ccc(Cl)cc1")
0.105
>>> experimental_result("O=C(CCl)N1CCC(C(=O)N2CCCCCC2)CC1")
-0.0368
>>> experimental_result("Cc1cccc2nc(CCNC(=O)CCl)cn12.Cl")
-0.222
>>> experimental_result("Cl.Cn1nccc1C(NC(=O)CCl)c1ccccc1 (centres undefined)")
-0.582
>>> experimental_result("CCC1c2ccsc2CCN1C(=O)CCl (centres undefined)")
-0.157
>>> experimental_result("Cc1ccn2cc(CNC(=O)CCl)nc2c1.Cl")
-0.325

The measurements presented in this section are drawn from the supplement of paper PMC11732987.
